This collection of values is drawn from patent US12624034B2.

Target: AKT1 WT (Homo sapiens, UniProt P31749)
Construct: expressed in transfected cells; host or cells: HEK293
Sequence (P31749 whole entry): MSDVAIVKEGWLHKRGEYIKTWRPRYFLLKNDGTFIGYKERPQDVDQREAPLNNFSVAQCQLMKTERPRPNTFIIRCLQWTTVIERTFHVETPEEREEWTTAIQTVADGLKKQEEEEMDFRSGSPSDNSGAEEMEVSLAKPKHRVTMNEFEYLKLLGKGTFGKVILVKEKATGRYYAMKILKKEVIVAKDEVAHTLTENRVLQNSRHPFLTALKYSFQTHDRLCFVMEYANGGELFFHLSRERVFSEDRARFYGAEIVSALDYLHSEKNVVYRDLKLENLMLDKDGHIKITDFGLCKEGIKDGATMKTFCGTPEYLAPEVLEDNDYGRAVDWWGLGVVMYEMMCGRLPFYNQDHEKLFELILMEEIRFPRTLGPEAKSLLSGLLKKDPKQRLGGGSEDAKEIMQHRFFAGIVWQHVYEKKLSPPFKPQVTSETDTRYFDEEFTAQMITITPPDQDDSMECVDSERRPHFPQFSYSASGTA
Assay: Live cell AKT1 WT target engagement by NanoBRET competitive probe displacement in HEK293 cells
Assay type: binding
Conditions: NanoBRET live cell target engagement, HEK293 cells, 2 h at 37° C.; read-out: AKT1 WT IC50
So I've got a bunch of compounds here, and I need their pIC50 values.
Answers are plain numbers, as −log10 of the molar value.

// query Please provide the recorded pIC50 for COc1cc(C(=O)N[C@H]2CCc3cc(-n4c(-c5cccnc5N)nc5ccc(-n6cccn6)nc54)ccc32)cnn1 [Compound 377] , tested on AKT1 WT (Homo sapiens, UniProt P31749).
// result 8.54

// query Form entry - test system: AKT1 WT (Homo sapiens, UniProt P31749); read-out: pIC50; compound: Nc1ncccc1-c1nc2ccc(-n3nccn3)nc2n1-c1ccc2c(c1)CC[C@@H]2NC(=O)c1ccnc2c1CCO2 [Compound 286]
// result 7.39

// query Request body: readout pIC50, system AKT1 WT (Homo sapiens, UniProt P31749), query Nc1ncccc1-c1nc2ccc(-n3cccn3)nc2n1-c1ccc2c(c1)CC[C@@H]2NC(=O)c1ccc(F)nc1 [Compound 264] . Return the value.
// result 8.02

For each entry beneath this line, provide reported pIC50.
1. Nc1ncccc1-c1nc2ccc(-n3cccn3)nc2n1-c1ccc2c(c1)CC[C@@H]2NC(=O)c1ccc(O)c(Cl)c1 [Compound 258]
2. Cc1ccc(C(C)N[C@H]2CCc3cc(-n4c(-c5cccnc5N)nc5ccc(-n6cccn6)nc54)ccc32)cn1 (some centres unmarked) [Compound 154]

// result
1. 8.51
2. 6.29

Below are 3 compounds. Give each one its pIC50.
1. Nc1ncccc1-c1nc2ccc(-n3cccn3)nc2n1-c1ccc2c(c1)CC(F)[C@@H]2NC1CCN(C(=O)C2CC2)CC1 (single isomer, unassigned) [Compound 385]
2. COc1cc(C(=O)N[C@H]2CCc3cc(-n4c(-c5cccnc5N)nc5ccc(-n6cccn6)nc54)ccc32)n(C)n1 [Compound 158]
3. Nc1ncccc1-c1nc2ccc(-n3cccn3)nc2n1-c1ccc2c(c1)CC[C@@H]2n1cc(Cc2ccccc2)nn1 [Compound 156]

// result
[7.46, 7.87, 7.41]

###

Molecular target: AKT1 WT (Homo sapiens, UniProt P31749)
Construct: expressed in transfected cells; host or cells: HEK293
Assay: Live cell AKT1 WT target engagement by NanoBRET competitive probe displacement in HEK293 cells
Type: binding
Settings: NanoBRET competitive probe displacement, live HEK293 cells, 2 h at 37° C.; read-out: AKT1 WT IC50
Method: Determining live cell AKT1 E17K, AKT1 WT, and AKT2 target engagement by NanoBRET competitive probe displacement. […] Briefly, HEK293 cells were transfected with plasmids encoding kinase-NanoLuciferase fusion proteins overnight. […] After incubation for 2 h at 37° C., luciferase substrate and extracellular luciferase inhibitor were added to all wells, and luminescent intensity at 460 nm and 600 nm were measured on a multimode plate-reader. […]
METRIC NAME: pIC50
Numbers only, as −log10 of the molar value.

Before answering, review these 4 worked examples.
// query Report pIC50 for Nc1ncccc1-c1nc2ccc(-n3cccn3)nc2n1-c1ccc2c(c1)CC[C@@H]2NC1CCN(c2cccnc2)C1 (stereo partly drawn) [Compound 471] please.
// result 7.41

// query Entry Nc1ncccc1-c1nc2ccc(-n3cccn3)nc2n1-c1ccc2c(c1)CC[C@@H]2NC1CCN(C(=O)C2CC2)CC1F (stereo partly drawn) [Compound 443] has what pIC50?
// result 7.63

// query Return reported pIC50; argument: Nc1ncccc1-c1nc2ccc(-n3ccc(N4CC5CC(C4)O5)n3)nc2n1-c1ccc2c(c1)CC(F)[C@@H]2NC1CCN(C(=O)C2CC2)CC1 (stereo partly drawn)
// result 8.04

// query Value lookup for pIC50; key = `Nc1ncccc1-c1nc2ccc(C#C[C@H]3CCO3)nc2n1-c1ccc2c(c1)CC[C@@H]2NC(=O)c1ccc(C(F)F)nc1`
// result 7.55

Answer for every listed entry: what is its pIC50? The entries follow.
1. COc1cc(C(=O)N[C@H]2CCc3cc(-n4c(-c5cccnc5N)nc5ccc(-n6nccn6)nc54)ccc32)cnn1
2. Nc1ncccc1-c1nc2ccc(-n3ccc(Oc4cccnc4)n3)nc2n1-c1ccc2c(c1)CC[C@@H]2NC1CCN(C(=O)C2CC2)CC1

// result
[8.50, 8.06]

###

Biological target: AKT2 (Homo sapiens)
Construct: expressed in transfected cells; host or cells: HEK293
Test: Live cell AKT2 target engagement by NanoBRET competitive probe displacement in HEK293 cells
Type: binding
Details: NanoBRET competitive probe displacement, live HEK293 cells, 2 h at 37° C.; read-out: AKT2 IC50
Classify: Condition met when IC50 is strictly less than 1000 nM; Condition not met when IC50 is not.

// query Strictly below 1000 nM in IC50? `Cc1cc(N2CCC(N[C@H]3CCc4cc(-n5c(-c6cccnc6N)nc6ccc(-n7cccn7)nc65)ccc43)CC2)nc(C#N)n1`
// result Condition met

Further cases:
// query Please state whether IC50 is below 1000 nM for `Nc1ncccc1-c1nc2ccc(-n3cccn3)nc2n1-c1ccc2c(c1)CC[C@@H]2NC1CCN(C(=O)C(F)F)CC1`
// result Condition not met

// query Is the reported IC50 for `Nc1ncccc1-c1nc2ccc(C#CC3CCCC3)nc2n1-c1ccc2c(c1)CC[C@@H]2NC(=O)c1ccc(C(F)F)nc1` strictly below 1000 nM?
// result Condition not met

// query Would you kindly verify if IC50 of Nc1ncccc1-c1nc2ccc(C#CC3CC3)nc2n1-c1ccc2c(c1)CC(F)[C@@H]2NC1CCN(C(=O)C2CC2)CC1 (stereo partly shown) is strictly less than 1000 nM?
// result Condition not met

// query Item Nc1ncccc1-c1nc2ccc(-n3ccc(OC(F)F)n3)nc2n1-c1ccc2c(c1)CC(F)[C@@H]2NC1CCN(C(=O)C2CC2)CC1 (stereo partly shown) : IC50 beneath 1000 nM, strictly?
// result Condition not met

// query Confirm or reject: IC50 of `COc1cncc(-c2ccc3nc(-c4cccnc4N)n(-c4ccc5c(c4)CC[C@@H]5NC4CCN(C(=O)C5CC5)CC4)c3n2)n1` lies strictly below 1000 nM
// result Condition met

###

Target: AKT1 WT (Homo sapiens, UniProt P31749)
Construct: expressed in transfected cells; host or cells: HEK293
Test: Live cell AKT1 WT target engagement by NanoBRET competitive probe displacement in HEK293 cells
Assay type: binding
Conditions: NanoBRET live cell target engagement, HEK293 cells, 2 h at 37° C.; read-out: AKT1 WT IC50
Cut-off 100 nM on IC50: below means yes (1), at or above means no (0).

See these solved cases before continuing.
// query Given the entry `Nc1ncccc1-c1nc2ccc(-n3cccn3)nc2n1-c1ccc2c(c1)CC[C@@H]2NC(=O)c1cnc2c(c1)CC(=O)N2` , would its reported IC50 be below 100 nM?
// result yes (1)

// query is_below(IC50, 100 nM) for `Nc1ncccc1-c1nc2c(C(F)F)cc(-n3cccn3)nc2n1-c1ccc2c(c1)CC[C@@H]2NC(=O)c1ccc(C(F)F)nc1` ?
// result yes (1)

// query Is IC50 of `CN(C)Cc1cc(C(=O)N[C@H]2CCc3cc(-n4c(-c5cccnc5N)nc5ccc(-n6cccn6)nc54)ccc32)ccn1` strictly below 100 nM?
// result no (0)

---
// query Regarding `Nc1ncccc1-c1nc2ccc(-n3cccn3)nc2n1-c1ccc2c(c1)CC[C@@H]2NC(=O)c1cccnc1C#Cc1ccccc1` , kindly confirm whether its IC50 is beneath 100 nM.
// result yes (1)

// query Determine whether this molecule shows IC50 lower than 100 nM (ties excluded): `Nc1ncccc1-c1nc2ccc(-n3cccn3)nc2n1-c1ccc2c(c1)CC[C@@H]2NC(=O)c1ccc2[nH]c(=O)oc2c1`
// result yes (1)

// query Item `Cc1ncccc1C(=O)N[C@H]1CCc2cc(-n3c(-c4cccnc4N)nc4c(C(F)F)cc(-n5cccn5)nc43)ccc21` : IC50 beneath 100 nM, strictly?
// result yes (1)

###

Task for the reader: assign each of the following compounds its reported IC50.
Biological target: AKT2 (Homo sapiens, UniProt P31751)
Construct: expressed in transfected cells; host or cells: HEK293
Sequence (P31751 whole entry): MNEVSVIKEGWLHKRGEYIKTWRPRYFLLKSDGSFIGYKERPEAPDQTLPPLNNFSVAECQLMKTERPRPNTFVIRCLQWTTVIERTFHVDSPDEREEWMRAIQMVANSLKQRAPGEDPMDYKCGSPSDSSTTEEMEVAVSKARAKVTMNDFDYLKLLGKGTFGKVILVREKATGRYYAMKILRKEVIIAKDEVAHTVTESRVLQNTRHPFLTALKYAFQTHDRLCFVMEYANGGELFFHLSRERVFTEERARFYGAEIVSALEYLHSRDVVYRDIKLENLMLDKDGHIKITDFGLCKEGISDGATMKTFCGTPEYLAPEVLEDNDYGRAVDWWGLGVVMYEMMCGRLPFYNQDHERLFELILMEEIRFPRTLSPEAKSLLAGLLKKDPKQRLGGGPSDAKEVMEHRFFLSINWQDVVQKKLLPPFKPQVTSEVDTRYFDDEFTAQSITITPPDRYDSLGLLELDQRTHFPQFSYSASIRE
Assay: Live cell AKT2 target engagement by NanoBRET competitive probe displacement in HEK293 cells
Format: binding
Conditions: NanoBRET live cell target engagement, HEK293 cells, 2 h at 37° C.; read-out: AKT2 IC50
Give bare numbers, in nM.

// query What does the data say about its IC50? Entry: Nc1ncccc1-c1nc2ccc(N3CCOCC3)nc2n1-c1ccc2c(c1)CC[C@@H]2NC(=O)c1ccc(C(F)F)nc1 [Compound 136]
// result 284

Give me IC50 for each of these compounds, listed below.
1. Nc1ncccc1-c1nc2ccc(-n3cccn3)nc2n1-c1ccc2c(c1)CC[C@@H]2n1cc(C(F)F)nn1 [Compound 326]
2. Nc1ncccc1-c1nc2ccc(-n3cccn3)nc2n1-c1ccc2c(c1)CC[C@@H]2NC(=O)c1ccc(O)c(O)c1 [Compound 323]
3. Nc1ncccc1-c1nc2ccc(-n3cccn3)nc2n1-c1ccc2c(c1)CC[C@@H]2NC(=O)c1ccc(F)c(O)c1 [Compound 293]
4. Cc1cc(C(=O)N[C@H]2CCc3cc(-n4c(-c5cccnc5N)nc5ccc(-n6cccn6)nc54)ccc32)sn1 [Compound 375]
5. COc1nccc(C(=O)N[C@H]2CCc3cc(-n4c(-c5cccnc5N)nc5ccc(-n6cccn6)nc54)ccc32)c1Cl [Compound 281]
6. Nc1ncccc1-c1nc2ccc(-n3nccn3)nc2n1-c1ccc2c(c1)CC[C@@H]2NCc1ccc(C(F)F)nc1 [Compound 234]
7. Nc1ncccc1-c1nc2ccc(-n3cccn3)nc2n1-c1ccc2c(c1)CC[C@@H]2NC(=O)c1cccnc1C1CC1 [Compound 103]
8. Nc1ncccc1-c1nc2c(C(F)F)cc(-n3cccn3)nc2n1-c1ccc2c(c1)CC[C@@H]2NC(=O)c1ccc(C(F)F)nc1 [Compound 177]

// result
[1320, 594, 83.8, 68.9, 18.3, 4550, 316, 47.2]

Please go through the list and note IC50 for each compound.
1. CCc1cn([C@H]2CCc3cc(-n4c(-c5cccnc5N)nc5ccc(-n6cccn6)nc54)ccc32)nn1 [Compound 285]
2. Cc1cncc(C(=O)N[C@H]2CCc3cc(-n4c(-c5cccnc5N)nc5ccc(-n6cccn6)nc54)ccc32)c1 [Compound 30]
3. Nc1ncccc1-c1nc2ccc(-n3cccn3)nc2n1-c1ccc2c(c1)CC[C@@H]2NC(=O)Cc1ccn[nH]1 [Compound 51]
4. Cc1ncc(C(=O)N[C@H]2CCc3cc(-n4c(-c5cccnc5N)nc5ccc(-n6cccn6)nc54)ccc32)cn1 [Compound 143]

// result
1: 608; 2: 127; 3: 4560; 4: 138
